Source of measurements: ChEMBL document CHEMBL3351405

assay: Clearance in human liver microsomes assessed as extraction ratio; type: ADME; conditions: read-out: ERH
Experimental Endpoint: hepatic extraction ratio

# Input Smiles, hepatic extraction ratio
data = [
    ("[2H]C([2H])(O)c1nn2c3c(cnc2c1-c1ccc(C(F)(F)F)nc1)CN[C@]3(Cc1cccc(F)c1)C(=O)OC", 0.85),
    ("COC(=O)[C@@]1(Cc2cccc(F)c2)NCc2cnc3c(-c4ccc(C(F)(F)F)cc4)c(C(N)=O)nn3c21", 0.92),
    ("OCc1nn2c3c(cnc2c1-c1ccc(C(F)(F)F)nc1)CN[C@]3(Cc1cccc(F)c1)C1CC1", 0.93),
    ("COCCN(C)C(=O)[C@@]1(Cc2cccc(F)c2)NCc2cnc3c(-c4ccc(C(F)(F)F)cc4)cnn3c21", 0.9),
    ("COC(=O)[C@@]1(Cc2cccc(F)c2)NCc2cnc3c(-c4ccc(C(F)(F)F)cc4)c(CO)nn3c21", 0.82),
]

* * *

Molecular target: UniProt:Q7TQP3
Sequence (whole entry): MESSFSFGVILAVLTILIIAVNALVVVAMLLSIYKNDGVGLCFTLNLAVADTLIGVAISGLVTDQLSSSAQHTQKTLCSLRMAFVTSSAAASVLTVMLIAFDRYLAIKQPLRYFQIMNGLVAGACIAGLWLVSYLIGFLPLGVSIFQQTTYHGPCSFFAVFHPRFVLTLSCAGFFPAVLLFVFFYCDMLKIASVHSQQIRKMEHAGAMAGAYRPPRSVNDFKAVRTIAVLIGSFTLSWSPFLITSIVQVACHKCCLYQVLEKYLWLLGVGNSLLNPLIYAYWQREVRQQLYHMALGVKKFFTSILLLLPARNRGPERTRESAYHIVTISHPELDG
Assay: Agonist activity at mouse GPR119 overexpressed in CHO cells assessed as increase in cellular cAMP production by HTRF method relative to AR231453
Type: functional, cell-based
Experimental Endpoint: Efficacy (%)

[P] CCOC(=O)[C@](C)(Cc1ccccc1)c1c(C)cnc2c(-c3ccc(C(F)(F)F)cc3)cnn12
[Q] COC(=O)C1(Cc2ccccc2)CCc2cnc3c(-c4ccc(C(F)(F)F)cc4)cnn3c21 (racemic)
Task item: Between P and Q , whose recorded Efficacy is greater? Indicate which entry you chose by stating its label.
Reply: Q
(Q: 91%, P: 62%)

* * *

molecular target: Glucose-dependent insulinotropic receptor (Homo sapiens); assay: Agonist activity at human GPR119 overexpressed in CHO cells assessed as increase in cellular cAMP production by HTRF method relative to AR231453; type: functional, cell-based
Experimental Endpoint: Efficacy (%)

# Compound, Assayed Target, Unit Label, Efficacy
measured = [
    ("COC(=O)[C@@]1(Cc2cccc(F)c2)NCc2cnc3c(-c4ccc(C(F)(F)F)cc4)c(C(C)(C)O)nn3c21", "Glucose-dependent insulinotropic receptor (Homo sapiens)", "%", 58),
    ("COC(=O)C1(Cc2ccccc2)CCCCc2cnc3c(-c4ccc(C(F)(F)F)cc4)cnn3c21 (racemic)", "Glucose-dependent insulinotropic receptor (Homo sapiens)", "%", 66),
    ("CCOC(=O)[C@@]1(Cc2ccccc2)CCc2cnc3c(-c4ccc(Cl)cc4)cnn3c21", "Glucose-dependent insulinotropic receptor (Homo sapiens)", "%", 73),
    ("CCOC(=O)[C@](C)(Cc1ccccc1)c1ccnc2c(-c3ccc(C(F)(F)F)cc3)c(C)nn12", "Glucose-dependent insulinotropic receptor (Homo sapiens)", "%", 83),
    ("CCOC(=O)C1(Cc2ccccc2)c2c(cnc3c(-c4ccc(C(F)(F)F)cc4)cnn23)CN1C (racemic)", "Glucose-dependent insulinotropic receptor (Homo sapiens)", "%", 55),
    ("CCOC(=O)[C@](C)(Cc1ccccc1)c1c(Cl)cnc2c(-c3ccc(C(F)(F)F)cc3)cnn12", "Glucose-dependent insulinotropic receptor (Homo sapiens)", "%", 75),
    ("COC(=O)C1(Cc2ccccc2)CCc2cnc3c(-c4ccc(C#N)cc4)cnn3c21 (racemic)", "Glucose-dependent insulinotropic receptor (Homo sapiens)", "%", 55),
    ("CCOC(=O)[C@@]1(Cc2ccccc2)CCCc2cnc3c(-c4ccc(C(F)(F)F)cc4)cnn3c21", "Glucose-dependent insulinotropic receptor (Homo sapiens)", "%", 75),
]
